The following compounds are listed with their measured IC50 values.
# study.system: DOT1L(1-416) (Homo sapiens)
# Sequence (Q8TEK3 1-416): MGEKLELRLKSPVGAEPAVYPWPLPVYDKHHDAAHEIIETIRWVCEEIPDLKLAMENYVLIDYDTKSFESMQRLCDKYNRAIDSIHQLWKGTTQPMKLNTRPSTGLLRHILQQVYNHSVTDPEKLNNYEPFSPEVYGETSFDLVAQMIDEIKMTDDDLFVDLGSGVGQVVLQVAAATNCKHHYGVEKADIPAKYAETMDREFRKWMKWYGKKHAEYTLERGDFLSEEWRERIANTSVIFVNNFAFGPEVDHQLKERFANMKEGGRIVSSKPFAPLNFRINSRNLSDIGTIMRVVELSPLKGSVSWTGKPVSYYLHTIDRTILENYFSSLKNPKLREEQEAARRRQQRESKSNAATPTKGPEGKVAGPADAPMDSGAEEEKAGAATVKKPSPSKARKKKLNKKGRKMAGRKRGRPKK
# measurement.protocol: Determination of IC50: DOT1L(1-416) methyltransferase assay, 3H-SAM, oligonucleosome substrate, Flashplate
# Type: biochemical
# condition.context: class symbols; read-out: DOT1L IC50

[
  {
    "compound": "CN(C[C@H]1C[C@@H](n2ccc3c(N)ncnc32)[C@H](O)[C@@H]1O)C1CC(CCc2nc3cc(C4COC4)ccc3[nH]2)C1 (stereo partly drawn) [Compound 62]",
    "study.system": "DOT1L(1-416) (Homo sapiens)",
    "recorded.endpoint": "IC50",
    "test.value": "100 to 1000 nM"
  },
  {
    "compound": "CC(C)N(C[C@H]1C[C@@H](n2ccc3c(N)ncnc32)[C@H](O)[C@@H]1O)[C@H]1C[C@H](CCc2nc3cc(OC(F)(F)F)ccc3[nH]2)C1 [Compound 61]",
    "study.system": "DOT1L(1-416) (Homo sapiens)",
    "recorded.endpoint": "IC50",
    "test.value": "100 to 1000 nM"
  },
  {
    "compound": "CC(C)N(C[C@H]1O[C@@H](n2cnc3c(N)ncnc32)[C@H](O)[C@@H]1O)C1CC(CCc2nc3cc(C4CC4)ccc3[nH]2)C1 (stereo partly drawn) [Compound 112]",
    "study.system": "DOT1L(1-416) (Homo sapiens)",
    "recorded.endpoint": "IC50",
    "test.value": "< 100 nM"
  },
  {
    "compound": "COCC(C)(C)c1ccc2[nH]c(CC[C@H]3C[C@@H](N(C[C@H]4O[C@@H](n5cnc6c(N)ncnc65)[C@H](O)[C@@H]4O)C(C)C)C3)nc2c1 [Compound 122]",
    "study.system": "DOT1L(1-416) (Homo sapiens)",
    "recorded.endpoint": "IC50",
    "test.value": "< 100 nM"
  },
  {
    "compound": "CN(C[C@H]1O[C@@H](n2ccc3c(N)ncnc32)[C@H](O)[C@@H]1O)[C@H]1C[C@@H](CCc2nc3cc(C(C)(C)C)ccc3[nH]2)C1 [Compound 86]",
    "study.system": "DOT1L(1-416) (Homo sapiens)",
    "recorded.endpoint": "IC50",
    "test.value": "< 100 nM"
  }
]

Asked: If you can, please state the reported IC50 value of CC(C)N(C[C@H]1O[C@@H](n2cnc3c(N)ncnc32)[C@H](O)[C@@H]1O)[C@H]1C[C@@H](CCc2nc3cc(C4(C#N)CC4)ccc3[nH]2)C1 [Compound 135] .
Given back: < 100 nM

Asked: Dear colleague, I am looking for the recorded IC50 of the following compound: CC(C)N(C[C@H]1O[C@@H](n2cnc3c(N)ncnc32)[C@H](O)[C@@H]1O)C1CC(CCc2nc3cc(C4(C)CCC4)ccc3[nH]2)C1 (stereo partly drawn) [Compound 27]
Given back: < 100 nM

###

# study.system: DOT1L(1-416) (Homo sapiens)
# measurement.protocol: Determination of IC50: DOT1L(1-416) methyltransferase assay, 3H-SAM, oligonucleosome substrate, Flashplate
# Type: biochemical
# condition.context: class symbols; read-out: DOT1L IC50
pIC50: −log10 of the molar value.
Here, each record is paired with measured pIC50 data.

In the examples that follow, each entry is paired with its recorded pIC50.
[
  {
    "compound": "CN(C[C@H]1O[C@@H](n2cnc3c(N)ncnc32)[C@H](O)[C@@H]1O)[C@H]1C[C@@H](CCc2nc3cc(C(C)(C)C)ccc3[nH]2)C1",
    "test.value": "> 7.00"
  },
  {
    "compound": "CCN(C[C@H]1O[C@@H](n2cnc3c(N)ncnc32)[C@H](O)[C@@H]1O)[C@H]1C[C@H](CCc2nc3cc(C(C)(C)C)ccc3[nH]2)C1",
    "test.value": "> 7.00"
  },
  {
    "compound": "CC(C)(C)c1ccc2[nH]c(CC[C@H]3C[C@@H](N(C[C@H]4O[C@@H](n5cnc6c(N)ncnc65)[C@H](O)[C@@H]4O)CC(F)(F)F)C3)nc2c1",
    "test.value": "6.00 to 7.00"
  },
  {
    "compound": "CN(C[C@H]1O[C@@H](n2cnc3c(N)ncnc32)[C@H](O)[C@@H]1O)[C@H]1C[C@@H](CCc2nc3cc(OC(F)(F)F)ccc3[nH]2)C1",
    "test.value": "> 7.00"
  }
]

Asked: Query (compound): CC(C)(C)c1ccc2[nH]c(CCC3CC(N(C[C@H]4C[C@@H](n5ccc6c(N)ncnc65)[C@H](O)[C@@H]4O)CC(F)(F)F)C3)nc2c1 (stereo partly drawn) ; field requested: pIC50
Given back: 6.00 to 7.00

Asked: Please look up its pIC50: CN(C[C@H]1C[C@@H](n2ccc3c(N)ncnc32)[C@H](O)[C@@H]1O)[C@H]1C[C@@H](CCc2nc3cc(C(F)(F)F)c(Cl)cc3[nH]2)C1
Given back: > 7.00
